Molecular target: Hyaluronidase (Bos taurus) (UniProt Q8SQG8+Q5E985)
Assay: Inhibition of bovine testes hyaluronidase using hyaluronic acid as substrate assessed as residual activity at 100 uM by nephelometric method relative to control
Type: protein assay
Measured Activity of individual entries

compound	Activity / %
COC(=O)C1=CC(O)CN(Cc2cccnc2)C1 (centres undefined)	99
O=C(O)C1=CCCN(Cc2cc(=O)[nH]c(=O)[nH]2)C1	102
O=C(O)[C@H]1CN(Cc2ccncc2)CC[C@H]1O	100
O=C(O)C1=CCCN(Cc2nc3ccccc3[nH]2)C1	100
O=C(O)C1=CC(O)CN(Cc2cccnc2)C1 (centres undefined)	102
O=C(O)[C@H]1CN(Cc2cccnc2)CC[C@H]1O	100
O=C(O)C1=CCCN(Cc2ccccc2)C1	100
O=C(O)C1=CC(O)CN(Cc2ccncc2)C1 (centres undefined)	104
O=C(O)C1=CC(O)CN(Cc2ccccn2)C1 (centres undefined)	101

###

Quick reference: Activity of the listed items.
System: beta-glucuronidase (Bos taurus)
Test: Inhibition of bovine liver beta-glucuronidase using phenolphthalein beta-glucuronide as substrate assessed as residual activity measured liberation of phenolphthalein at 100 uM relative to control
quantity-measured: Activity (%)

molecule	assay-system	unit-tag	numeric-value
O=C(O)C1=CC(O)CN(Cc2ccncc2)C1 (configuration not stated)	beta-glucuronidase (Bos taurus)	%	103
COC(=O)C1=CC(O)CN(Cc2ccccn2)C1 (configuration not stated)	beta-glucuronidase (Bos taurus)	%	103
O=C(O)C1=CCCN(Cc2ccccn2)C1	beta-glucuronidase (Bos taurus)	%	96
COC(=O)C1=CC(O)CN(Cc2ccccc2)C1 (configuration not stated)	beta-glucuronidase (Bos taurus)	%	93
O=C(O)C1=CCCN(Cc2cc(=O)[nH]c(=O)[nH]2)C1	beta-glucuronidase (Bos taurus)	%	100
COC(=O)C1=CC(O)CN(Cc2cccnc2)C1 (configuration not stated)	beta-glucuronidase (Bos taurus)	%	102
O=C(O)[C@H]1CN(Cc2ccccc2)CC[C@H]1O	beta-glucuronidase (Bos taurus)	%	102
CCOC(=O)C1CN(Cc2ccccc2)CCC1O (mixture of isomers)	beta-glucuronidase (Bos taurus)	%	95
O=C(O)[C@H]1CN(Cc2cccnc2)CC[C@H]1O	beta-glucuronidase (Bos taurus)	%	104
O=C(O)C1=CC(O)CN(Cc2cc(=O)[nH]c(=O)[nH]2)C1 (configuration not stated)	beta-glucuronidase (Bos taurus)	%	102
O=C(O)C1=CC(O)CN(Cc2cccnc2)C1 (configuration not stated)	beta-glucuronidase (Bos taurus)	%	100
O=C(O)C1=CCCN(Cc2ccccc2)C1	beta-glucuronidase (Bos taurus)	%	89
O=C(O)C1=CC(O)CN(Cc2ccccc2)C1 (configuration not stated)	beta-glucuronidase (Bos taurus)	%	97
O=C(O)[C@H]1CN(Cc2ccncc2)CC[C@H]1O	beta-glucuronidase (Bos taurus)	%	108
CCOC(=O)N1C=C(C(=O)OC)CCC1	beta-glucuronidase (Bos taurus)	%	96
O=C(O)[C@H]1CN(Cc2ccccn2)CC[C@H]1O	beta-glucuronidase (Bos taurus)	%	103
COC(=O)C1=CC(O)CN(Cc2ccncc2)C1 (configuration not stated)	beta-glucuronidase (Bos taurus)	%	105
O=C(O)C1=CC(O)CN(Cc2ccccn2)C1 (configuration not stated)	beta-glucuronidase (Bos taurus)	%	103
O=C(O)C1=CCCN(Cc2ccncc2)C1	beta-glucuronidase (Bos taurus)	%	95
O=C(O)C1=CCCN(Cc2cccnc2)C1	beta-glucuronidase (Bos taurus)	%	102
O=C(O)C1=CCCN(Cc2nc3ccccc3[nH]2)C1	beta-glucuronidase (Bos taurus)	%	100
COC(=O)C1=CC(O)CN(Cc2cc(=O)[nH]c(=O)[nH]2)C1 (configuration not stated)	beta-glucuronidase (Bos taurus)	%	97

###

Measured pIC50, listed per entry.
Assay: Inhibition of Saccharomyces cerevisiae alpha-glucosidase using pNPG as substrate at 100 uM preincubated for 20 mins followed by substrate addition measured after 45 mins
pIC50: −log10 of the molar value.

molecule	pIC50
O=C(O)C1=CC(O)CN(Cc2cc(=O)[nH]c(=O)[nH]2)C1 (centres undefined)	5.70
O=C(O)C1=CC(O)CN(Cc2cccnc2)C1 (centres undefined)	5.63
O=C(O)C1=CC(O)CN(Cc2ccncc2)C1 (centres undefined)	5.70
O=C(O)C1=CC(O)CN(Cc2ccccn2)C1 (centres undefined)	5.70

###

Activity by entry:
Molecular target: Hyaluronidase (Bos taurus) (UniProt Q8SQG8+Q5E985)
Assay: Inhibition of bovine testes hyaluronidase using hyaluronic acid as substrate assessed as residual activity at 100 uM by nephelometric method relative to control
Type: protein assay

molecule	assay-system	Activity (%)
O=C(O)[C@H]1CN(Cc2ccccc2)CC[C@H]1O	Hyaluronidase (Bos taurus) (UniProt Q8SQG8+Q5E985)	100
COC(=O)C1=CC(O)CN(Cc2ccccn2)C1 (stereo not drawn)	Hyaluronidase (Bos taurus) (UniProt Q8SQG8+Q5E985)	100
COC(=O)C1=CC(O)CN(Cc2ccccc2)C1 (stereo not drawn)	Hyaluronidase (Bos taurus) (UniProt Q8SQG8+Q5E985)	99
O=C(O)C1=CC(O)CN(Cc2ccccc2)C1 (stereo not drawn)	Hyaluronidase (Bos taurus) (UniProt Q8SQG8+Q5E985)	101
O=C(O)C1=CCCN(Cc2ccncc2)C1	Hyaluronidase (Bos taurus) (UniProt Q8SQG8+Q5E985)	99
CCOC(=O)N1C=C(C(=O)OC)CCC1	Hyaluronidase (Bos taurus) (UniProt Q8SQG8+Q5E985)	100
CCOC(=O)C1CN(Cc2ccccc2)CCC1O (mixture of isomers)	Hyaluronidase (Bos taurus) (UniProt Q8SQG8+Q5E985)	103
O=C(O)C1=CC(O)CN(Cc2cc(=O)[nH]c(=O)[nH]2)C1 (stereo not drawn)	Hyaluronidase (Bos taurus) (UniProt Q8SQG8+Q5E985)	100
O=C(O)C1=CCCN(Cc2ccccn2)C1	Hyaluronidase (Bos taurus) (UniProt Q8SQG8+Q5E985)	101
O=C(O)[C@H]1CN(Cc2ccccn2)CC[C@H]1O	Hyaluronidase (Bos taurus) (UniProt Q8SQG8+Q5E985)	100
COC(=O)C1=CC(O)CN(Cc2cc(=O)[nH]c(=O)[nH]2)C1 (stereo not drawn)	Hyaluronidase (Bos taurus) (UniProt Q8SQG8+Q5E985)	100
O=C(O)C1=CCCN(Cc2cccnc2)C1	Hyaluronidase (Bos taurus) (UniProt Q8SQG8+Q5E985)	99
COC(=O)C1=CC(O)CN(Cc2ccncc2)C1 (stereo not drawn)	Hyaluronidase (Bos taurus) (UniProt Q8SQG8+Q5E985)	99

###

System: Saccharomyces cerevisiae
Experiment: Inhibition of Saccharomyces cerevisiae alpha-glucosidase using pNPG as substrate assessed as residual activity at 100 uM preincubated for 20 mins followed by substrate addition measured after 45 mins relative to control
Reported values of Activity for individual entries

molecule	Activity / %
O=C(O)C1=CC(O)CN(Cc2cccnc2)C1 (configuration not stated)	2
COC(=O)C1=CC(O)CN(Cc2ccccn2)C1 (configuration not stated)	97
O=C(O)C1=CCCN(Cc2cccnc2)C1	102
O=C(O)[C@H]1CN(Cc2ccncc2)CC[C@H]1O	85
O=C(O)C1=CC(O)CN(Cc2ccccn2)C1 (configuration not stated)	2
O=C(O)C1=CCCN(Cc2cc(=O)[nH]c(=O)[nH]2)C1	97
O=C(O)C1=CCCN(Cc2nc3ccccc3[nH]2)C1	93
COC(=O)C1=CC(O)CN(Cc2ccncc2)C1 (configuration not stated)	94
O=C(O)[C@H]1CN(Cc2cccnc2)CC[C@H]1O	97
O=C(O)[C@H]1CN(Cc2ccccn2)CC[C@H]1O	95
O=C(O)[C@H]1CN(Cc2ccccc2)CC[C@H]1O	82
O=C(O)C1=CCCN(Cc2ccncc2)C1	99
O=C(O)C1=CC(O)CN(Cc2ccccc2)C1 (configuration not stated)	95
CCOC(=O)N1C=C(C(=O)OC)CCC1	109
COC(=O)C1=CC(O)CN(Cc2cc(=O)[nH]c(=O)[nH]2)C1 (configuration not stated)	95
O=C(O)C1=CCCN(Cc2ccccc2)C1	97
O=C(O)C1=CCCN(Cc2ccccn2)C1	95
CCOC(=O)C1CN(Cc2ccccc2)CCC1O (mixture of isomers)	100
O=C(O)C1=CC(O)CN(Cc2ccncc2)C1 (configuration not stated)	3
COC(=O)C1=CC(O)CN(Cc2cccnc2)C1 (configuration not stated)	105
COC(=O)C1=CC(O)CN(Cc2ccccc2)C1 (configuration not stated)	92
O=C(O)C1=CC(O)CN(Cc2cc(=O)[nH]c(=O)[nH]2)C1 (configuration not stated)	3

###

Assay: Uncompetitive inhibition of Saccharomyces cerevisiae alpha-glucosidase using maltose as substrate by Cornish-Bowden plot analysis

molecule	Ki (nM)
O=C(O)C1=CC(O)CN(Cc2cccnc2)C1 (stereo unspecified)	800

###

Assay: Uncompetitive inhibition of Saccharomyces cerevisiae alpha-glucosidase using pNPG as substrate by Cornish-Bowden plot analysis
pKi: −log10 of the molar value.
Each entry below carries its reported pKi.
quantity-measured: pKi

compound	numeric-value
O=C(O)C1=CC(O)CN(Cc2ccccn2)C1 (centres undefined)	5.28
O=C(O)C1=CC(O)CN(Cc2ccncc2)C1 (centres undefined)	4.99
O=C(O)C1=CC(O)CN(Cc2cccnc2)C1 (centres undefined)	5.92
O=C(O)C1=CC(O)CN(Cc2cc(=O)[nH]c(=O)[nH]2)C1 (centres undefined)	4.90
